RUN DESCRIPTION: in vivo
STATED CONDITIONS: mouse, iv
ASSAY READOUT: LD50 (mg/kg)
Only the number, expressed in mg/kg, is required.

Ask: Requested field: LD50. Item: CC(O)CC(=O)OC(CC(=O)[O-])C[N+](C)(C)C (centres unmarked) [hydroxybutyryl-carnitine]
Result: 745

Ask: Requested field: LD50. Item: CC(=O)OC(CC(=O)[O-])C[N+](C)(C)C (centres unmarked)
Result: 770

Ask: Requested field: LD50. Item: CC(C)CC(=O)OC(CC(=O)[O-])C[N+](C)(C)C (centres unmarked)
Result: 743

Ask: Requested field: LD50. Item: CC(=O)CC(=O)OC(CC(=O)[O-])C[N+](C)(C)C (centres unmarked)
Result: 728

Ask: Requested field: LD50. Item: C[N+](C)(C)CC(CC(=O)[O-])OC(=O)CCC(=O)O (centres unmarked)
Result: 780

The values you see were collected from patent US4343816A.
